molecular target: human, recombinant full-length HDAC1 (Homo sapiens (Human), UniProt Q13547); test: HDAC inhibition assay, HDAC1; assay type: biochemical; settings: Table 1; mean of two experiments ± standard deviation, 10-point enzyme assay
Sequence (Q13547 whole entry): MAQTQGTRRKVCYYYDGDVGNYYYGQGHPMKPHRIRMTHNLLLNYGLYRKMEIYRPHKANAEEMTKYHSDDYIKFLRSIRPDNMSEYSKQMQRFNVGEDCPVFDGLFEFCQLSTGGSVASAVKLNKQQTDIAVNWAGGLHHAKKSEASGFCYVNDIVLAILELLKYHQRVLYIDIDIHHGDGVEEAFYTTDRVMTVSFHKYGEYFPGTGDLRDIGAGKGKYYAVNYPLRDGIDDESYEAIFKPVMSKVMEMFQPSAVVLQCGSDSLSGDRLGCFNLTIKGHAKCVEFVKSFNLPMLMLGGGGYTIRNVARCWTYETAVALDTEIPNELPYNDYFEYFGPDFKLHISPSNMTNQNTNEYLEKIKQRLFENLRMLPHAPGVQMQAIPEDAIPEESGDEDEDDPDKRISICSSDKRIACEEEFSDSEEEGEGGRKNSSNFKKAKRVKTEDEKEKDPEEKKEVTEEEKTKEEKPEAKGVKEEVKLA
pIC50: −log10 of the molar value.
Examples of compounds with documented pIC50 follow.

{"Compound structure": "Cc1cc(NC(=O)NCc2ccc(C(=O)NO)cc2)no1", "Experimental target": "human, recombinant full-length HDAC1 (Homo sapiens (Human), UniProt Q13547)", "pIC50": 6.00}
{"Compound structure": "O=C(NO)c1ccc(CN(CCc2ccccc2)C(=O)Nc2ccccc2)cc1", "Experimental target": "human, recombinant full-length HDAC1 (Homo sapiens (Human), UniProt Q13547)", "pIC50": 5.51}
{"Compound structure": "COc1ccccc1NC(=O)N(CCCN(C)C)Cc1ccc(C(=O)NO)cc1", "Experimental target": "human, recombinant full-length HDAC1 (Homo sapiens (Human), UniProt Q13547)", "pIC50": 5.59}
{"Compound structure": "COc1ccccc1NC(=O)N(CCc1c[nH]c2ccccc12)Cc1ccc(C(=O)NO)cc1", "Experimental target": "human, recombinant full-length HDAC1 (Homo sapiens (Human), UniProt Q13547)", "pIC50": 5.05}
{"Compound structure": "COc1ccc(NC(=O)NCc2ccc(C(=O)NO)cc2)cc1", "Experimental target": "human, recombinant full-length HDAC1 (Homo sapiens (Human), UniProt Q13547)", "pIC50": 5.97}
{"Compound structure": "COc1ccccc1NC(=O)NCc1ccc(C(=O)NO)cc1", "Experimental target": "human, recombinant full-length HDAC1 (Homo sapiens (Human), UniProt Q13547)", "pIC50": 6.58}
{"Compound structure": "CCCCN(C(=O)NCc1ccc(C(=O)NO)cc1)c1ccccc1", "Experimental target": "human, recombinant full-length HDAC1 (Homo sapiens (Human), UniProt Q13547)", "pIC50": 5.09}
{"Compound structure": "Cc1ccnc(NC(=O)NCc2ccc(C(=O)NO)cc2)c1", "Experimental target": "human, recombinant full-length HDAC1 (Homo sapiens (Human), UniProt Q13547)", "pIC50": 6.24}
{"Compound structure": "COc1ccccc1NC(=O)N(CCCO)Cc1ccc(C(=O)NO)cc1", "Experimental target": "human, recombinant full-length HDAC1 (Homo sapiens (Human), UniProt Q13547)", "pIC50": 5.72}
{"Compound structure": "COc1ccccc1NC(=O)N(CCc1ccc(O)cc1)Cc1ccc(C(=O)NO)cc1", "Experimental target": "human, recombinant full-length HDAC1 (Homo sapiens (Human), UniProt Q13547)", "pIC50": 5.77}
{"Compound structure": "COCCCN(Cc1ccc(C(=O)NO)cc1)C(=O)Nc1ccccc1", "Experimental target": "human, recombinant full-length HDAC1 (Homo sapiens (Human), UniProt Q13547)", "pIC50": 5.29}
{"Compound structure": "COCCN(Cc1ccc(C(=O)NO)cc1)C(=O)Nc1ccccc1", "Experimental target": "human, recombinant full-length HDAC1 (Homo sapiens (Human), UniProt Q13547)", "pIC50": 5.65}
